Test system: COLO 205 colon
Assay: NCI-60 one-dose screen, 48 h (100 = growth as untreated, 0 = no growth, -100 = all killed)
Details: 10 µM unless noted
This is part of a sample that, as a whole, favours compounds with a hit. Of some 83,000 tested, about 20% had one in any assay. Calls of active or inactive are those of the source. How the source made its calls: active means growth percent below 10; inactive means the rest.
The following molecules are shown together with reported growth values.

# growth (molecule: COc1cc(/C=C/C(=O)c2cccs2)ccc1OCc1ccc(Cl)nc1 ) is 98.1% (inactive)

# growth (molecule: CCN1CCN(c2ccc(NC(=O)Nc3nc4ccc(-c5ccccc5OC)cc4s3)cc2)CC1 ) is -73.2% (active)

# growth (molecule: CC1CCCN(CCCCCOc2ccc3oc4ccc(Cl)cc4c(=O)c3c2)C1 (stereo not given) ) is 57.5% (inactive)

# growth (molecule: Cc1[nH]c(N=Nc2ccccc2)nc1N=Nc1ccccc1 ) is 17.2% (inactive)

# growth (molecule: O=CN1N=C(c2ccc(F)cc2)CC1c1cccc(Nc2ccnc3cc(C(F)(F)F)ccc23)c1 (stereo not given) ) is 32.3% (inactive)

Continuing:
# growth (molecule: O=C1CCC23OC(C(O)c4ccccc4N12)C1C(Br)=NOC13 (stereo not given) ) is 108% (inactive)

# growth (molecule: Clc1ccc2c(NCCCNC3CCCCC3)ccnc2c1 ) is 93.5% (inactive)

# growth (molecule: NC(N)=NC(N)=Nc1cc2ccccc2c2ccccc12 ) is -59% (active)

# growth (molecule: C=C1C(=O)O[C@H]2[C@H]1CC/C(COC(=O)N1CCC[C@H]1C(=O)Nc1ccc(OC)c(C(N)=O)c1O)=C\CC[C@@]1(C)O[C@@H]21 ) is -25.7% (active)

# growth (molecule: Cc1cnc(SCc2ccc(Cl)cc2Cl)nc1Nc1ccc(Cl)c(Cl)c1 ) is 117% (inactive)
